Molecular target: D(2) dopamine receptor (Homo sapiens) (UniProt P14416)
Sequence (P14416 whole entry, looked up): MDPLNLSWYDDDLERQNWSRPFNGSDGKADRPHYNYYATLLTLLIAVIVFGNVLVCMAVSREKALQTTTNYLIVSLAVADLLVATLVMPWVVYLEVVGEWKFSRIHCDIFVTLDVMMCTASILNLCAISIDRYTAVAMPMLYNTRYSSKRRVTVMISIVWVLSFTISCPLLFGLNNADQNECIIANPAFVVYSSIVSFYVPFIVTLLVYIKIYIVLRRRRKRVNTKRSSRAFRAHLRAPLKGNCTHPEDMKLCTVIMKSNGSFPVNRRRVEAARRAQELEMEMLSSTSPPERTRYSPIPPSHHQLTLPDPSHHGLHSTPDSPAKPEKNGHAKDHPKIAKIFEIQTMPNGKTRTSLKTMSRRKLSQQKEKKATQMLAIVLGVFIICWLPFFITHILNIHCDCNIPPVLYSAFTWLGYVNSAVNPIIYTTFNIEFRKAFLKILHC
Assay: qHTS of D3 Dopamine Receptor Agonist: D2 Dopamine Receptor B-arrestin Agonist Counterscreen; also: nearly all actives have a fitted effect of over 70% in size; as to activation: % of control where 0% means no effect
Conditions: DiscoveRx PathHunter D2 beta-arrestin, luminescence, 90 min; series mostly up to 76.9 µM
Excerpt: D3 DARs represent a very important target for the treatment of several neuropsychiatric disorders. Indeed, one of the most promising therapeutic applications for the D3 DAR is in the area of addiction and related disorders. […] These findings have been observed with a number of addictive substances including cocaine, amphetamine, nicotine, and alcohol. […] Increased D3 DAR activity can thus lead to neuroprotective and neurorestorative actions in the CNS. […]
In all, about 2,300 compounds went through this assay and about 140 (6.1%) were called active. Roughly 18% stayed inconclusive and do not appear here. Calls follow the shape of the dose curve; as a rule, active = well fitted activation curve with a large enough effect; inconclusive = small, poorly fitted or top-dose-only effect; inactive = flat fitted curve, though single readings scatter. These entries were drawn from the full list.
Outcomes you can answer with include only these: YES for active, NO for inactive

molecule | group_label
Cc1cnc(C(=O)N2CCCC(N3CCN(c4ccccc4F)CC3)C2)cn1 (stereo not drawn) | NO
CCCN(CC(=O)Nc1ccccc1C)C(=O)c1ccc2[nH]c3c(c2c1)CC(C)CC3 (stereo not drawn) | NO
Cc1c(CC(=O)N2CCN(C(=O)C3COc4ccccc4O3)CC2)c(=O)oc2c(O)c(O)ccc12 (stereo not drawn) | YES
Cc1c(C(=O)Nc2cccc(-c3nnc4n3CCCCC4)c2)oc2ccccc12 | NO
O=C1c2ccccc2S(=O)(=O)N1CC(O)Cn1c2ccccc2c2ccccc21 (stereo not drawn) | NO
O=c1cc(CCl)nc2scc(-c3ccccc3)n12 | NO
Cc1ccc(O)c(-c2cc(C(=O)Nc3c(C)n(C)n(-c4ccccc4)c3=O)[nH]n2)c1 | NO

Lookup: How was `O=C(CCN1CCN(C/C=C/c2ccccc2)CC1)Nc1ccccc1Cl` classified in this test?
Found: NO

---

Target: D(2) dopamine receptor (Homo sapiens)
Test: qHTS of D3 Dopamine Receptor Agonist: D2 Dopamine Receptor B-arrestin Agonist Counterscreen; also: nearly all actives have a fitted effect of over 70% in size; as to activation: % of control where 0% means no effect
Settings: DiscoveRx PathHunter D2 beta-arrestin, luminescence, 90 min; series mostly up to 76.9 µM
Out of some 2,300 compounds screened, about 140 (6.1%) were called active. Not shown: some 18% with an inconclusive outcome. The call rests on the fitted dose curve; in most records, active means well fitted activation curve with a large enough effect; inconclusive means small, poorly fitted or top-dose-only effect; inactive means flat fitted curve, though single readings scatter. A selection follows.
Outcomes you can answer with include only these: 1.0 (active), 0.0 (inactive)

// known answers, use as guide
molecule | group_label
Cc1ccccc1OCC(O)CN1CCN(c2ccccn2)CC1 (centres undefined) | 0.0
NS(=O)(=O)c1ccc(CCNS(=O)(=O)c2cccc3cccnc23)cc1 | 0.0
Cc1cccc(OCC(=O)NCC(=O)N/N=C/c2ccc(N(C)C)cc2)c1 | 0.0

Lookup: How was `CCC(=O)Nc1ccc(C(=O)N2CCN(C(=O)c3ccco3)CC2)cc1` classified in this test?
Found: 0.0

Lookup: How was `CCn1cc(C(=O)N2CCN(Cc3ccc4c(c3)OCO4)CC2)c2cc(OC)c(OC)cc2c1=O` classified in this test?
Found: 0.0

Lookup: How was `c1ccc(-c2cnc(CN3CCN(c4ccccc4)CC3)o2)cc1` classified in this test?
Found: 0.0

Lookup: How was `Cc1c(CN2CC[C@@H](N3CCN(c4ccccn4)CC3)[C@H](O)C2)[nH]c2ccc(F)cc12` classified in this test?
Found: 1.0

Lookup: How was CN(C)CCOC(=O)C(c1ccccc1)C1(O)CCCC1 (centres undefined) classified in this test?
Found: 0.0

---

Target: D(2) dopamine receptor (Homo sapiens) (UniProt P14416)
Assay: qHTS of D3 Dopamine Receptor Agonist: D2 Dopamine Receptor B-arrestin Agonist Counterscreen; also: nearly all actives have a fitted effect of over 70% in size; as to activation: % of control where 0% means no effect
Settings: DiscoveRx PathHunter D2 beta-arrestin, luminescence, 90 min; series mostly up to 76.9 µM
Screen size: about 2,300 compounds; about 140 (6.1%) were called active. Another 18% or so got no clear call; they are omitted. Calls come from the whole dose curve; as a rule, active = well fitted activation curve with a large enough effect; inconclusive = small, poorly fitted or top-dose-only effect; inactive = flat fitted curve, though single readings scatter. Not all results are given here.
Outcomes you can answer with include only these: active, inactive

// known answers, use as guide
compound | group_label
C/C(=N\NC(=S)NC1CCCCC1)c1ccc(C)o1 | inactive
COC(c1ccccc1)c1nnc(CCC(=O)N2CCN(CCOc3ccccc3)CC2)o1 (stereo unspecified) | inactive
CC(=O)OC(C)C[N+](C)(C)C (stereo unspecified) | inactive
OCC1(Cc2ccccc2)CCN(Cc2cc3ccccc3o2)CC1 | active
COc1ccc([C@H]2CC(=O)C=C(c3ccc(OC(F)(F)F)cc3)C2)cc1OC | inactive

Lookup: How was `COc1ccc(S(=O)(=O)N2CCSCC2)cc1` classified in this test?
Found: inactive

Lookup: How was COc1ccc(CC(NC(C)=O)C(=O)N2CCN(C(=O)Nc3cccc(Cl)c3)CC2)cc1OC (stereo unspecified) classified in this test?
Found: inactive

Lookup: How was `O=C(COc1coc(CN2CCN(c3ccccc3)CC2)cc1=O)Nc1ccccc1F` classified in this test?
Found: inactive

Origin of values: PubChem BioAssay AID720507
